- procedureDetails: qHTS assay for identifying genotoxic compounds that show differential cytotoxicity against isogenic chicken DT40 cell lines with known DNA damage response pathways - wild type cell line (AID 743012); further: nearly all actives have a fitted effect of over 60% in size
- measurementParameters: DT40 wild type chicken cells viability, CellTiter-Glo, 40 h; series mostly up to 68.4 µM
Records with an inconclusive call do not appear. The source made the active and inactive calls. The call rests on the fitted dose curve; in most records, active means well fitted cell-killing curve with a large enough effect in the repeat runs; inconclusive means weak or mixed curves, or effect the other way; inactive means no such curve, though single readings can be large or run the other way.
Pick one: T (active), F (inactive)

# count of solved cases: 5
molecule	label
C[C@H]1CC[C@]2(NC1)O[C@H]1C[C@H]3[C@@H]4CC[C@H]5C[C@@H](O[C@@H]6O[C@H](CO)[C@H](O[C@@H]7O[C@H](CO)[C@@H](O)[C@H](O[C@@H]8OC[C@@H](O)[C@H](O)[C@H]8O)[C@H]7O[C@@H]7O[C@H](CO)[C@@H](O)[C@H](O)[C@H]7O)[C@H](O)[C@H]6O)CC[C@]5(C)[C@H]4CC[C@]3(C)[C@H]1[C@@H]2C	T
CC(C)C[C@H](CN)CC(=O)O	F
CC(C)NC(C)Cc1ccc(I)cc1 (centres undefined)	T
CN[C@@H]1C[C@@H](c2ccc(Cl)c(Cl)c2)c2ccccc21	T
C[C@H]1CC[C@]2(NC1)O[C@H]1C[C@H]3[C@@H]4CC[C@H]5C[C@@H](O)CC[C@]5(C)[C@H]4CC[C@]3(C)[C@H]1[C@@H]2C	F

**Q:** Tell me the assay call for Oc1cccc[c]1[Hg][Cl] please.
**A:** T

**Q:** Tell me the assay call for CNC(C)C(O)c1ccc(O)cc1 (centres undefined) please.
**A:** F

**Q:** Tell me the assay call for CCC1(C)CC(=O)NC(=O)C1 please.
**A:** F

**Q:** Tell me the assay call for O=C(O)/C=C/C(=O)O please.
**A:** F

###

- systemTested: Acetylcholinesterase (Homo sapiens)
- procedureDetails: Acetylcholinesterase (AChE) small molecule antagonists: enzyme-based qHTS assay (AID 1347397); further: nearly all actives have a fitted effect of over 55% in size
- measurementParameters: AChE enzyme activity inhibition; series mostly up to 115 µM
Active and inactive are the calls of the source. The call rests on the fitted dose curve.
Pick one: active, inactive

# count of solved cases: 3
> print(dat)
                                 compound     label
1  CC(C)=CCCC(C)CCOC=O (stereo not drawn)  inactive
2                   CCCCOC(=O)c1ccc(O)cc1  inactive
3                           CC(=O)OCC(C)C  inactive

**Q:** Tell me the assay call for CCNC(=O)/C=C/c1cccc(Br)c1 please.
**A:** inactive

**Q:** Tell me the assay call for O=C1c2c(O)ccc([N+](=O)[O-])c2C(=O)c2c([N+](=O)[O-])ccc(O)c21 please.
**A:** active

**Q:** Tell me the assay call for CC(C)CCCCCCOC(=O)C1CCCCC1C(=O)OCCCCCCC(C)C (stereo not drawn) please.
**A:** inactive

**Q:** Tell me the assay call for CNc1ccccc1 please.
**A:** inactive

**Q:** Tell me the assay call for CN(C)CCOC(=O)C(c1ccccc1)C1(O)CCCC1 (stereo not drawn) please.
**A:** inactive

###

- procedureDetails: qHTS assay to identify aromatase inhibitors - cell viability counter screen (AID 743084);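 further: cells stimulated with testosterone during compound exposure; nearly all actives have a fitted effect of over 55% in size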
- measurementParameters: MCF-7 aro ERE viability, CellTiter-Fluor, 24 h; series mostly up to 70.3 µM
Results filed as inconclusive are left out. Calls of active or inactive are those of the source. Calls come from the whole dose curve; as a rule, active = well fitted cell-killing curve with a large enough effect in the repeat runs; inconclusive = weak or mixed curves, or effect the other way; inactive = no such curve, though single readings can be large or run the other way.
Pick one: active, inactive

# count of solved cases: 5
structure	label
CCCCCCCCCC(=O)O[C@H]1CC[C@H]2[C@@H]3CCC4=CC(=O)CC[C@]4(C)[C@H]3CC[C@]12C	inactive
NCC[C@H](O)C(=O)N[C@@H]1C[C@H](N)[C@@H](O[C@H]2O[C@H](CN)[C@@H](O)[C@H](O)[C@H]2N)[C@H](O[C@@H]2O[C@H](CO)[C@@H](O)[C@H]2O)[C@H]1O	inactive
CCC(=O)O[C@]1(c2ccccc2)CCN(C)C[C@H]1C	inactive
O=C(O)CCCO	inactive
CC(C)[C@@]1(NC(=O)[C@@H]2C[C@@H]3c4cccc5[nH]cc(c45)C[C@H]3N(C)C2)O[C@@]2(O)[C@@H]3CCCN3C(=O)[C@H](Cc3ccccc3)N2C1=O	inactive

**Q:** Tell me the assay call for CN(C)[C@H](Cc1ccccc1)c1ccccc1 please.
**A:** inactive

**Q:** Tell me the assay call for O=C1C=C2C=C[C@@H]3C[C@@]2(O1)[C@H]1CCCCN31 please.
**A:** active

**Q:** Tell me the assay call for Oc1cccc[c]1[Hg][Cl] please.
**A:** active

**Q:** Tell me the assay call for N#CC(C#N)=Cc1cc(O)c(O)c(O)c1 please.
**A:** active

Data provenance: PubChem BioAssay (Tox21)
